- System: NCI-H23 lung
- test.summary: NCI-60 one-dose screen, 48 h
- particulars: 10 µM unless noted
This is part of a sample that, as a whole, favours compounds with a hit. Of some 83,000 tested, about 20% had one in any assay. Active and inactive are the calls of the source. The calls were made as follows: active = growth percent below 10; inactive = the rest.
Classes used: YES = active, NO = inactive

compound	category
COc1cccc(CCC(=O)c2cc3c(N)c(C(=O)Nc4cccc(Cl)c4C)sc3nc2C)c1	NO
CC(=O)[C@@H]1CC[C@]2(C(N)=O)CC[C@]3(C)[C@H](CC[C@@H]4[C@@]5(C)CCC(=O)C(C)(C)[C@@H]5CC[C@]43C)[C@@H]12	NO
CSc1nc(O)c(-c2ccccc2)c(=O)[nH]1	NO
COc1ccc(/C(=C\c2ccccc2)C(=O)O)cc1OC	NO
Cc1ccc(Nc2cc(=S)nc(N)[nH]2)cc1C	NO
COc1ccc(-c2cnc(N)nc2-c2ccc(OC)cc2O)cc1	NO
COc1ccc(/C(C)=N/NC(=O)CSc2nc3ccccc3c(=O)n2Cc2ccc(S(N)(=O)=O)cc2)c(OC)c1	NO
CC[N+](CC)(CCCC(C)[N+]1(Cc2ccccc2)C(C)=CC=C1C)Cc1ccccc1 (stereo unspecified)	NO
COc1cccc(C(Cc2ccccc2)Nc2ccccc2)c1OC (stereo unspecified)	NO
Cc1n[nH]c(C)c1-c1c(C)n[nH]c1C	YES
C(=C\c1n(Cc2ccc3ccccc3c2)c(-c2ccccc2)c(-c2ccccc2)[n+]1Cc1ccc2ccccc2c1)/c1ccccc1	YES
CC1(C)[C@H](O)CC[C@]2(C)[C@@H]1CC[C@@]13C[C@@H](CC[C@H]12)[C@@](O)(CO)C3	NO
C1=C2CNCC3=Cc4ccc5ccccc5c4OC23Oc2c1ccc1ccccc21	NO
C#CC(=O)Nc1cccc(Nc2nc3c(c(NCc4ccccc4)n2)CCCC3)c1	YES
Fc1ccccc1CSc1ncnc2nc[nH]c12	NO
C#Cc1cccc(NC(=O)Nc2cccc(N=C=S)c2)c1	NO
CCCCCCCCCCCC(=O)C(CCCCCCCCCC)C(=O)Nc1ccccc1 (stereo unspecified)	NO
COc1ccc(-n2cc(-c3cc(OC)c(OC)c(OC)c3)n(C(C)=O)c2=O)cc1	NO
COc1cccc(-c2nc3occn3c2-c2ccnc(NCCCNS(=O)(=O)c3cccc(F)c3)n2)c1	NO
COc1ccc(Cn2nc(-c3ccccc3)c3c2CCc2cnoc2-3)cc1	NO
CN1CCN(c2cnc(C(=O)Nc3cc(F)cc4cccnc34)cn2)CC1	NO
